Reference source: PubChem BioAssay (Tox21)

- TESTED SYSTEM: Cytochrome P450 2D6 (Homo sapiens) (UniProt P10635)
- Sequence (P10635 whole entry, looked up): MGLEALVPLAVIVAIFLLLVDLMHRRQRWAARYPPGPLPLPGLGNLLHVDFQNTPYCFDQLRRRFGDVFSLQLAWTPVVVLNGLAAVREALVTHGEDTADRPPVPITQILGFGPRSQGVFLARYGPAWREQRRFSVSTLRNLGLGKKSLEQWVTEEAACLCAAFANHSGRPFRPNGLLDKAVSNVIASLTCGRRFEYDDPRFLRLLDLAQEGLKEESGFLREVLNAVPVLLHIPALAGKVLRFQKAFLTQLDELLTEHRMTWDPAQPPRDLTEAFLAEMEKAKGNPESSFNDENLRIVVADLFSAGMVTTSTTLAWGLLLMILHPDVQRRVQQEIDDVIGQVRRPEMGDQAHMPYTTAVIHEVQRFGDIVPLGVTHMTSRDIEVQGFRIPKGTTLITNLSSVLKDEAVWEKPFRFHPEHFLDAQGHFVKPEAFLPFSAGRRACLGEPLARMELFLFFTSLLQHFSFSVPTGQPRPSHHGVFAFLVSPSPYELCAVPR
- TEST DETAILS: Cytochrome P450 Family 2 Subfamily D Member 6 (CYP2D6) small molecule antagonists: luciferase reporter qHTS assay (AID 1671196); also: nearly all actives have a fitted effect of over 50% in size; also: potency is read from the fitted curve at half-maximal effect
- ASSAY SETUP: P450-Glo CYP2D6 enzyme assay, luciferin luminescence, 1 h; series mostly up to 115 µM
Inconclusive results are not listed. Calls of active or inactive are those of the source. Calls follow the shape of the dose curve; as a rule, active = well fitted inhibition curve with a large enough effect in the repeat runs; inconclusive = weak or mixed curves; inactive = no such curve, though single readings can be large or run the other way.
REPORTED ENDPOINT: Potency

Some solved cases for reference:
(Q) What measured Potency goes with CC1CC(C)C(=O)C1=O (stereo unspecified) ?
(A) inactive

(Q) Here is the next compound: Cc1cc2c(OCC(CNC(C)(C)C)OC(=O)c3ccccc3)cccc2[nH]1 (stereo unspecified)
(A) 0.692 µM (active)

(Q) Here is the next compound: C=C1c2cccc(O)c2C(O)=C2C(=O)[C@]3(O)C(O)=C(C(N)=O)C(=O)[C@@H](N(C)C)[C@@H]3[C@@H](O)[C@H]12
(A) inactive

(Q) Here is the next compound: O=C(/C=C/c1ccc(O)c(O)c1)O[C@@H]1C[C@@](OC(=O)/C=C/c2ccc(O)c(O)c2)(C(=O)O)C[C@@H](O)[C@@H]1O
(A) inactive

(Q) Here is the next compound: C1COC1
(A) inactive

Next:
(Q) What measured Potency goes with c1ccc2c(c1)CCc1ccccc1N2 ?
(A) inactive

(Q) Here is the next compound: CC(CN(C)C)C(C)(O)Cc1ccc(Cl)cc1 (stereo unspecified)
(A) 6.17 µM (active)

(Q) Here is the next compound: c1cc(N(CC2CO2)CC2CO2)ccc1Cc1ccc(N(CC2CO2)CC2CO2)cc1 (stereo unspecified)
(A) inactive

(Q) Here is the next compound: COc1ccccc1NC(=O)c1cc2ccccc2cc1O
(A) inactive

(Q) Here is the next compound: CCOC(=O)[C@H](CCc1ccccc1)N[C@@H](C)C(=O)N(CC(=O)O)C1Cc2ccccc2C1
(A) inactive

(Q) Here is the next compound: O=C(O)CCc1nc(-c2ccccc2)c(-c2ccccc2)o1
(A) inactive

(Q) Here is the next compound: CN1CCCN=C1COC(=O)C(O)(c1ccccc1)C1CCCCC1 (stereo unspecified)
(A) 0.617 µM (active)

(Q) Here is the next compound: CC(=O)Nc1cc(S(=O)(=O)O)cc2cc(S(=O)(=O)O)c(N=Nc3ccccc3)c(O)c12
(A) 35.6 µM (active)

(Q) Here is the next compound: Oc1c(I)cc(I)c2cccnc12
(A) inactive

(Q) Here is the next compound: CC(=O)N/N=C/c1ccc([N+](=O)[O-])o1
(A) inactive

(Q) Here is the next compound: Cc1ccc2c(Br)cc(Br)c(O)c2n1
(A) inactive

(Q) Here is the next compound: CC(=O)OCC(=O)NCCCOc1cccc(CN2CCCCC2)c1
(A) 15.5 µM (active)

(Q) Here is the next compound: C(=C\c1ccccc1)/c1ccccc1
(A) inactive

(Q) Here is the next compound: Cc1ccc(C(C)(C)O)cc1
(A) inactive

(Q) Here is the next compound: C=Cc1ccc(S(=O)(=O)O)cc1
(A) inactive

(Q) Here is the next compound: CCOC(=O)/C=C/C(=O)OCC
(A) inactive

(Q) Here is the next compound: CCOC(=O)c1ccc(I)cc1
(A) inactive

---

- TEST DETAILS: Human pregnane X receptor (PXR) small molecule agonists, qHTS cell viability counter screen (AID 1346977); also: nearly all actives have a fitted effect of over 50% in size
- ASSAY SETUP: PXR-Luc HepG2 viability, CellTiter-Fluor, 24 h; series mostly up to 92.4 µM
Records with an inconclusive call do not appear. Activity calls are given as the source filed them. Calls come from the whole dose curve; as a rule, active = well fitted cell-killing curve with a large enough effect in the repeat runs; inconclusive = weak or mixed curves, or effect the other way; inactive = flat fitted curve, though single readings scatter.
Would you mind answering with one of these outcomes? active, inactive

(Q) Name the outcome recorded for Cc1ccco1 in the assay.
(A) inactive

(Q) Here is the next compound: CCC(OCCCOC)OC(C)=O (centres undefined)
(A) inactive

(Q) Here is the next compound: CCc1ccccc1
(A) inactive

Next:
(Q) Name the outcome recorded for CCOc1ccc(Cc2nccc3cc(OCC)c(OCC)cc23)cc1OCC in the assay.
(A) active

(Q) Here is the next compound: Nc1nnc(-c2ccc([N+](=O)[O-])o2)o1
(A) active

(Q) Here is the next compound: OCCN1CCN(CCCN2c3ccccc3Sc3ccc(Cl)cc32)CC1
(A) active

(Q) Here is the next compound: O=C1C(=O)c2ccccc2C(O)=C1C1CCC(c2ccc(Cl)cc2)CC1 (centres undefined)
(A) active

(Q) Here is the next compound: CC1CC(C)C(=O)C1=O (centres undefined)
(A) inactive

(Q) Here is the next compound: Nc1ncnc2c1ncn2[C@H]1CC[C@@H](CO)O1
(A) inactive
